Origin of the recorded values: PubChem BioAssay (EPA / NIEHS)

TEST: Tanguay_ZF_120hpf_EYE_legacy: (Legacy) Oregon State University Tanguay Lab 120 Hour Post-fertilization zebrafish Assay for Eye Malformation (AID 2283636);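 note: binary presence or absence of eye malformation scored by brightfield in 120 hpf larvae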
Results filed as inconclusive are left out. The source made the active and inactive calls. Rule for the calls: active = hit-call score of the fitted dose curve at least 0.9, where 1 is the maximum; inconclusive = response in the unintended direction; inactive = score below 0.9.
Result category, one only: active, inactive

>>> group_label("C[C@]12CC[C@@H]3c4ccc(O)cc4CC[C@H]3[C@@H]1CCC2=O")
"inactive"

Dear all, I need the recorded test outcome for `CN1C(=O)CC[C@H]1c1cccnc1` , thank you.
inactive

###

TEST: Tanguay_ZF_120hpf_EYE_legacy: (Legacy) Oregon State University Tanguay Lab 120 Hour Post-fertilization zebrafish Assay for Eye Malformation (AID 2283636);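 note: binary presence or absence of eye malformation scored by brightfield in 120 hpf larvae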
Inconclusive results are not listed. Active and inactive are the calls of the source. The calls were made as follows: active = hit-call score of the fitted dose curve at least 0.9, where 1 is the maximum; inconclusive = response in the unintended direction; inactive = score below 0.9.
Result category, one only: True (active), False (inactive)

>>> group_label("CN(C[C@@H](CC[N+]12CCC(C3CCCCC3)(CC1)CC2)c1ccc(Cl)c(Cl)c1)C(=O)c1cc(C(F)(F)F)cc(C(F)(F)F)c1")
"False"
>>> group_label("CCCCCCCCCCCCO")
"False"
>>> group_label("O=C(O)c1ccccc1-n1cc(C(=O)O)c(=O)c2cc(Nc3c(F)cc(F)cc3Cl)c(Cl)cc21")
"False"
>>> group_label("c1ccc(C[n+]2cccc3ccccc32)cc1")
"False"
>>> group_label("CCCCCCCCOc1ccc(C(=O)c2ccccc2)c(O)c1")
"False"

Lab note: next compound to report on.
Dear all, I need the recorded test outcome for `CN(C)C(=O)C1(N2CCCCC2)CCN(CC[C@@]2(c3ccc(Cl)c(Cl)c3)CN(C(=O)c3ccccc3)CCO2)CC1` , thank you.
False

###

TEST: BSK_CASM3C_SRB: Viability Assessment in the BioMAP Diversity Plus: CASM3C Assay (AID 2283050);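 note: total protein by SRB staining as cytotoxicity measure in parallel cultures; cells exposed to compound for 24 h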
APPLIED_CONDITIONS: primary human coronary artery smooth muscle cells
The source made the active and inactive calls. The calls were made as follows: active = hit-call score of the fitted dose curve at least 0.9, where 1 is the maximum; inactive = score below 0.9.
Result category, one only: active, inactive

A selection of reference data follows.
>>> group_label("O=C(O)Cc1cc(I)c(Oc2ccc(O)c(I)c2)c(I)c1")
"inactive"
>>> group_label("CCCCOC(=O)c1ccc(O)cc1")
"inactive"

Dear all, I need the recorded test outcome for `CC/C(=C(/CC)c1ccc(O)cc1)c1ccc(O)cc1` , thank you.
active

Dear all, I need the recorded test outcome for `COc1cc(C(=O)NC2CCN(C)CC2)ccc1Nc1ncc2c(n1)N(C1CCCC1)CC(F)(F)C(=O)N2C` , thank you.
active

Dear all, I need the recorded test outcome for `O=C(O)c1ccccc1C(=O)OCc1ccccc1` , thank you.
inactive

Dear all, I need the recorded test outcome for `CCCCCCCCOc1ccc(C(=O)c2ccccc2)c(O)c1` , thank you.
inactive

Dear all, I need the recorded test outcome for `NCc1cccc(C2CCN(C(=O)c3ccc(C#Cc4ccccc4F)o3)CC2)c1` , thank you.
active

Dear all, I need the recorded test outcome for `Cc1cc2c(cc1C(F)(F)F)N(C(=O)Nc1ccc(Oc3cccnc3C)nc1)CC2` , thank you.
active

Dear all, I need the recorded test outcome for `O=C1O[C@H]([C@@H](O)CO)C(O)=C1O` , thank you.
inactive

###

Read-out: CYP2E1 (gene 1571)
TEST: LTEA_HepaRG_CYP2E1: Life Technologies and Expression Analysis (LTEA) Assay for CYP2E1 using HepaRG (AID 2283485)
APPLIED_CONDITIONS: mRNA level, 48 h; actives raise or lower the signal
The source made the active and inactive calls. The calls were made as follows: active = hit-call score of the fitted dose curve at least 0.9, where 1 is the maximum; inactive = score below 0.9.
Result category, one only: active, inactive

A selection of reference data follows.
>>> group_label("Cc1cccc2ccccc12")
"inactive"
>>> group_label("CCCCCc1ccc(N)cc1")
"inactive"
>>> group_label("CC[C@@H]1C[C@H](N(Cc2cc(C(F)(F)F)cc(C(F)(F)F)c2)C(C)=O)c2cc(C(F)(F)F)ccc2N1C(=O)OC(C)C")
"active"
>>> group_label("Oc1ccc2ccccc2c1")
"inactive"
>>> group_label("CN(C)c1ccc(C(=C2C=CC(=[N+](C)C)C=C2)c2ccc(N(C)C)cc2)cc1")
"active"

Lab note: next compound to report on.
Dear all, I need the recorded test outcome for CN1C(=O)N(c2ccccc2Br)Cc2cnc(Nc3ccc4c(c3)OCC(CO)O4)nc21 (stereo unspecified) , thank you.
active

###

Read-out: Glutathione S-Transferase (GSTA2), GSTA2 (gene 2939)
TEST: LTEA_HepaRG_GSTA2: Life Technologies and Expression Analysis (LTEA) Assay for Glutathione S-Transferase (GSTA2) using HepaRG (AID 2283497)
APPLIED_CONDITIONS: mRNA level, 48 h; actives raise or lower the signal
Calls of active or inactive are those of the source. The calls were made as follows: active = hit-call score of the fitted dose curve at least 0.9, where 1 is the maximum; inactive = score below 0.9.
Result category, one only: yes = active, no = inactive

A selection of reference data follows.
>>> group_label("O=C(O)c1ccccc1C(=O)OCc1ccccc1")
"no"
>>> group_label("O=CCCCC=O")
"no"
>>> group_label("CN(C)c1ccc(C(=C2C=CC(=[N+](C)C)C=C2)c2ccc(N(C)C)cc2)cc1")
"yes"
>>> group_label("NCc1cccc(C2CCN(C(=O)c3ccc(C#Cc4ccccc4F)o3)CC2)c1")
"yes"
>>> group_label("O=C1CCC(C2CCCCC2)CC1")
"no"

Dear all, I need the recorded test outcome for `CCCCOC(=O)c1ccc(O)cc1` , thank you.
no

Dear all, I need the recorded test outcome for `CCCCOC(=O)CC(CC(=O)OCCCC)(OC(C)=O)C(=O)OCCCC` , thank you.
no

Dear all, I need the recorded test outcome for `CC/C(=C(/CC)c1ccc(O)cc1)c1ccc(O)cc1` , thank you.
no

Dear all, I need the recorded test outcome for `CCCCCCCCCC(=O)O` , thank you.
no

Dear all, I need the recorded test outcome for `Cc1cn([C@H]2C[C@H](N=[N+]=[N-])[C@@H](CO)O2)c(=O)[nH]c1=O` , thank you.
no

###

Read-out: E-selectin (Homo sapiens)
TEST: BSK_3C_Eselectin: BioMAP Diversity Plus: 3C Assay for Eselectin Biomarker Activity (AID 2283015);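 note: cell surface E-selectin protein quantified by ELISA 24 h after dosing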
APPLIED_CONDITIONS: primary human endothelial cells (HUVEC); actives raise or lower the signal
Procedure: BSK_3C is a cell-based, multiplexed-readout assay that uses umbilical vein endothelium, a human vascular primary cell, with measurements taken at 24 hours after chemical dosing in a 96-well plate.BSK_3C_Eselectin is an assay component measured in the BSK_3C assay. It measures E-selectin antibody related to regulation of gene expression using ELISA technology.Data from the assay component BSK_3C_Eselectin was analyzed into 1 assay endpoint. […]
Active and inactive are the calls of the source. Rule for the calls: active = hit-call score of the fitted dose curve at least 0.9, where 1 is the maximum; inactive = score below 0.9.
ASSAY_ENDPOINT: outcome

>>> val("O=C1c2ccccc2C(=O)N1CCc1noc(-c2ccc(CN3CCCCCC3)s2)n1")
"inactive"
>>> val("Cc1ccc2oc(CN(Cc3ccccc3)C(=O)Nc3c(F)cc(F)cc3F)c(-c3ccc(Cl)cc3)c2c1")
"inactive"
>>> val("CN1C(=O)CC[C@H]1c1cccnc1")
"inactive"
>>> val("O=C(Nc1ccc(Cl)cc1)Nc1ccc(Cl)c(Cl)c1")
"inactive"

Next item in the queue.
// outcome value for `Cc1occc1C(=O)Nc1ccc(C(=O)N2CCC(F)(F)/C(=C\C(=O)N3CCC(N4CCCCC4)CC3)c3ccccc32)cc1` : inactive

###

Read-out: Peroxisomal acyl-coenzyme A oxidase 1 (ACOX1) gene, ACOX1 (gene 51)
TEST: LTEA_HepaRG_ACOX1: Life Technologies and Expression Analysis (LTEA) Assay for Peroxisomal acyl-coenzyme A oxidase 1 (ACOX1) gene using HepaRG (AID 2283467)
APPLIED_CONDITIONS: mRNA level, 48 h; actives raise or lower the signal
Calls of active or inactive are those of the source. The calls were made as follows: active = hit-call score of the fitted dose curve at least 0.9, where 1 is the maximum; inactive = score below 0.9.
Result category, one only: active, inactive

Dear all, I need the recorded test outcome for `COc1ccc2cc(S(=O)(=O)N[C@H](CC(=O)N[C@H](Cc3ccc(CN4[C@H](C)CCC[C@@H]4C)cc3)C(=O)N(C)C(C)C)c3ccc4c(c3)OCO4)ccc2c1` , thank you.
active

###

Read-out: Cytochrome P450 (CYP24A1), CYP24A1 (gene 1591)
TEST: LTEA_HepaRG_CYP24A1: Life Technologies and Expression Analysis (LTEA) Assay for Cytochrome P450 (CYP24A1) using HepaRG (AID 2283478)
APPLIED_CONDITIONS: mRNA level, 48 h; actives raise or lower the signal
Experimental: LTEA_HepaRG is a cell based, multiplexed-readout assay that uses HepaRG, a human liver cell line, with measurements taken at 48 hours after chemical dosing on a 96-well plate.LTEA_HepaRG_CYP24A1 is one of 102 assay component(s) measured in the LTEA HepaRG cell culture assay. It is a marker of NR mediated metabolism.Data from the assay component LTEA_HepaRG_CYP24A1 was analyzed into 1 endpoint. […]
Active and inactive are the calls of the source. Rule for the calls: active = hit-call score of the fitted dose curve at least 0.9, where 1 is the maximum; inactive = score below 0.9.
ASSAY_ENDPOINT: outcome

>>> val("CCCCCCCCCC(=O)O")
"inactive"
>>> val("OCCO")
"inactive"
>>> val("COc1cccc([C@H](O)C2CCN(CCc3ccc(F)cc3)CC2)c1OC")
"inactive"
>>> val("O=c1c(-c2ccc(O)cc2)coc2cc(O)cc(O)c12")
"inactive"

// outcome value for `O=c1ccc2ccccc2o1` : inactive

// outcome value for `CC/C(=C(/CC)c1ccc(O)cc1)c1ccc(O)cc1` : inactive

// outcome value for `CN(C)C(=O)C1(N2CCCCC2)CCN(CC[C@@]2(c3ccc(Cl)c(Cl)c3)CN(C(=O)c3ccccc3)CCO2)CC1` : inactive

// outcome value for `CN(C[C@@H](CC[N+]12CCC(C3CCCCC3)(CC1)CC2)c1ccc(Cl)c(Cl)c1)C(=O)c1cc(C(F)(F)F)cc(C(F)(F)F)c1` : inactive

// outcome value for `NCc1cccc(C2CCN(C(=O)c3ccc(C#Cc4ccccc4F)o3)CC2)c1` : inactive

// outcome value for `NC(=O)c1nc(-c2cccc(-c3cc(F)ccc3OCC(F)(F)C(F)(F)F)c2)n[nH]1` : inactive

// outcome value for `CCCCCCCC[Si](OCC)(OCC)OCC` : inactive

// outcome value for `O=c1[nH]sc2ccccc12` : inactive

// outcome value for `Cc1cn([C@H]2C[C@H](N=[N+]=[N-])[C@@H](CO)O2)c(=O)[nH]c1=O` : inactive

// outcome value for `CC(C)(c1cc(Br)c(O)c(Br)c1)c1cc(Br)c(O)c(Br)c1` : inactive

// outcome value for `Cc1occc1C(=O)Nc1ccc(C(=O)N2CCC(F)(F)/C(=C\C(=O)N3CCC(N4CCCCC4)CC3)c3ccccc32)cc1` : inactive

// outcome value for `Cc1oc2c(NC(=O)c3c(Cl)cccc3Cl)cccc2c1C(C)(C)O` : inactive

// outcome value for `CCCCCCCCCCCCO` : inactive

// outcome value for `CC(C)(C)c1csc(-c2cc3cc(OCc4ccccc4CC(=O)O)ccc3o2)n1` : inactive

// outcome value for `c1ccc2n[nH]nc2c1` : inactive

// outcome value for `O=C(OCCCCCCOC(=O)c1ccccc1)c1ccccc1` : inactive

// outcome value for `Cc1cc(F)ccc1-c1cc(N2CC[C@@H](O)[C@H]2CO)ncc1N(C)C(=O)C(C)(C)c1cc(C(F)(F)F)cc(C(F)(F)F)c1` : inactive

// outcome value for `Cc1ccc2oc(CN(Cc3ccccc3)C(=O)Nc3c(F)cc(F)cc3F)c(-c3ccc(Cl)cc3)c2c1` : inactive

// outcome value for `CCN(CC)C(=O)c1cc(S(=O)(=O)Cc2ccccc2)c(N2CCC(c3ccccc3)CC2)cc1N(CC)CCN(C)C` : inactive
